READOUT LABEL: melting point

According to the records, this molecule Cc1noc2ccc(Oc3ncccc3C(=O)NCC3CCC(C(C)(C)O)CC3)cc12 (centres undefined) displays melting point of 135 to 137 °C

According to the records, this molecule NC(=O)N1C(=O)C(C(=O)c2cccs2)c2nc(Cl)ccc21 (centres undefined) displays melting point of 222 to 224 °C

According to the records, this molecule Clc1ccc(Nc2cncc(-n3ncc4ccccc43)n2)cc1 displays melting point of 204 to 207 °C

According to the records, this molecule CC(C)C1=C(C#N)C(c2ccccc2Br)c2c(n[nH]c2CC#N)N1 (centres undefined) displays melting point of > 250 °C

According to the records, this molecule CCc1ccc2c(c1)OC1(O)c3cccc(N)c3C(=O)C21O (centres undefined) displays melting point of 200 to 203 °C

According to the records, this molecule CC(N=Cc1ccc(O)cc1)C1CCCCC1 (single isomer, unassigned; (+)) displays melting point of 130 to 132 °C

According to the records, this molecule CS(=O)(=O)c1ccc(-c2nn(CCCc3ccccc3)c(=O)cc2-c2ccc(Cl)cc2)cc1 displays melting point of 70.2 to 71.6 °C

According to the records, this molecule CCOC(=O)Cc1nc(-c2ccc(F)cc2)oc1-c1cccs1 displays melting point of 116 to 117 °C

According to the records, this molecule CN1CCN(c2ccc(C=CC(=O)N3CCc4c([nH]c5ccccc45)C3c3ccc4c(c3)CCO4)cn2)CC1 (centres undefined) displays melting point of > 260 °C

====

Quick list: melting point per entry.

[
  {
    "MOLECULE": "Cc1ccn(-c2ccc(C(=O)N3Cc4cccn4Cc4ccccc43)c(F)c2)n1",
    "REPORTED RESULT": "192 to 193 °C"
  },
  {
    "MOLECULE": "CCN(CC)c1cncc(C(=O)Nc2nnn[nH]2)n1",
    "REPORTED RESULT": "217 to 218 °C"
  },
  {
    "MOLECULE": "CC1=C(c2ccc(O)cc2)CCC(=O)N1",
    "REPORTED RESULT": "197 to 200 °C"
  }
]

According to the records, this molecule Nc1ccc(CCc2nnco2)cc1 displays melting point of 73 to 74 °C

According to the records, this molecule COc1cccc(C=Cc2nc3c(s2)N(S(C)(=O)=O)CCC3)c1OC displays melting point of 134 to 136 °C

According to the records, this molecule CC(O)CCCCCc1ccc(-c2ccccc2)cc1 (stereo unspecified) displays melting point of 47 to 48 °C

====

Quick list: melting point per entry.

[
  {
    "MOL": "O=C1C(=O)c2ccc(-c3ccccc3)cc2C2=C1SCC1(CCNCC1)O2",
    "melting point": "83 to 87 °C"
  },
  {
    "MOL": "CCCCNC(=O)[C@H](C)C[C@H](O)[C@H](CC1CCCCC1)NC(=O)[C@H](Cc1cscn1)NC(=O)[C@@H](CC(=O)N(C)Cc1ccccc1)Cc1ccc(OC)cc1",
    "melting point": "112 to 114 °C"
  },
  {
    "MOL": "CCc1cc(CC)c(NC(=S)NC2CCCCC2)c(CC)c1",
    "melting point": "97 to 99 °C"
  },
  {
    "MOL": "CC(C)N(C)C(=O)COCCCCCCCC[C@H]1C[C@]2(C)[C@@H](O)CC[C@H]2[C@@H]2CCc3cc(O)ccc3[C@@H]12",
    "melting point": "126 °C"
  },
  {
    "MOL": "O=C1Nc2cccnc2Nc2ccccc21",
    "melting point": "278 to 280 °C"
  },
  {
    "MOL": "COc1ccc(Nc2ncnc3occ(C)c23)cc1",
    "melting point": "99 to 102 °C"
  }
]

According to the records, this molecule COc1cc(C(=O)Nc2ccc(N3CCOCC3)cc2C(C)=O)ccc1OCc1ccccc1 displays melting point of 192 to 194 °C

According to the records, this molecule Cc1ncc(CNC(=O)c2sc(N3CCN(Cc4ccc(F)cc4)C3=O)nc2C)s1 displays melting point of 213 to 215 °C

According to the records, this molecule CCCCCCCCCCNC(=O)C1=C(C(=O)Nc2cc(OC3CCCC3)c(Cl)cc2F)CCCC1 displays melting point of 128 to 130 °C

====

Quick list: melting point per entry.

Here's what some known entries look like.
[
  {
    "COMPOUND": "Cc1ccccc1CNc1cccc(-c2ccnc3c(C(=O)c4cccs4)cnn23)c1",
    "READOUT LABEL": "melting point",
    "REPORTED RESULT": "177 to 179 °C"
  },
  {
    "COMPOUND": "N#Cc1c[nH]c2c(C(=O)O)cccc12",
    "READOUT LABEL": "melting point",
    "REPORTED RESULT": "318 °C"
  },
  {
    "COMPOUND": "CC1(C)CCC(C)(C)c2cc(CC#Cc3ccc(C(=O)O)c(O)c3)c(O)cc21",
    "READOUT LABEL": "melting point",
    "REPORTED RESULT": "216 to 217 °C"
  },
  {
    "COMPOUND": "CC(=O)SC(CC(=O)N[C@@H](Cc1ccccc1)C(=O)O)C(=O)c1ccccc1 (stereo not given in full)",
    "READOUT LABEL": "melting point",
    "REPORTED RESULT": "110 to 112 °C"
  },
  {
    "COMPOUND": "CCc1ccc(C=CC(=O)NN2CC(=O)NC2=O)cc1Cl",
    "READOUT LABEL": "melting point",
    "REPORTED RESULT": "231 to 234 °C"
  },
  {
    "COMPOUND": "CCn1c2ccc(C=NNc3ccccc3)cc2c2cc(C=NNc3ccccc3)ccc21",
    "READOUT LABEL": "melting point",
    "REPORTED RESULT": "119 to 120 °C"
  },
  {
    "COMPOUND": "COCc1c[nH]c2c([N+](=O)[O-])cc(C)cc2c1=O",
    "READOUT LABEL": "melting point",
    "REPORTED RESULT": "> 240 °C"
  },
  {
    "COMPOUND": "CCOC(=O)c1c(N2CCN(C(=O)c3cccs3)CC2)c2cccnc2n(CCCN(C)C)c1=O",
    "READOUT LABEL": "melting point",
    "REPORTED RESULT": "84 to 94 °C"
  },
  {
    "COMPOUND": "Cc1nc(-c2cccnc2)sc1-c1ccnc(Nc2ccc(N3CCOCC3)c(Cl)c2)n1",
    "READOUT LABEL": "melting point",
    "REPORTED RESULT": "230 to 231 °C"
  }
]

// next item, melting point requested
According to the records, this compound CC(C)C[C@H](NC(=O)OCc1ccccc1)C(=O)N[C@H]1CCOC1O (stereo not given in full) displays melting point of 48 to 49 °C

====

Quick list: melting point per entry.

Here's what some known entries look like.
[
  {
    "COMPOUND": "O=c1[nH]c2c3ccccc3c(=CO)c2n2ccnc12",
    "melting point": "290 °C"
  },
  {
    "COMPOUND": "CCCCCCOc1cc(-c2cccc(N)c2)c(OCCCCCC)cc1-c1cccc(N)c1",
    "melting point": "105 to 106 °C"
  },
  {
    "COMPOUND": "CCC(=S)Nc1c(SC(F)(F)F)c(C#N)nn1-c1c(Cl)cc(C(F)(F)F)cc1SC",
    "melting point": "153 to 155 °C"
  },
  {
    "COMPOUND": "CSc1ccc(-c2n[nH]c(=O)cc2-c2ccc(F)cc2)cc1",
    "melting point": "197 to 198 °C"
  }
]

According to the records, this compound Cc1csc2nc(CO)cn12 displays melting point of 156 to 157 °C

According to the records, this compound O=C(Nc1c(C(O)(C(F)(F)F)C(F)(F)F)ccc2ccccc12)c1cccs1 displays melting point of 191 to 192 °C

According to the records, this compound CCOC(=O)c1cnc2sccc2c1Sc1ccc(C)cc1 displays melting point of 60 to 63 °C

According to the records, this compound CCOC(=O)c1ncn2c1cc(-c1ccccc1)c1ccccc12 displays melting point of 176 to 185 °C

According to the records, this compound O=c1[nH]c(NCCSCc2nccs2)nnc1Cc1cccnc1 displays melting point of 158 to 159 °C

According to the records, this compound CSc1nc2c(cnn2CC(O)c2ccccc2)c(=O)[nH]1 (configuration not stated) displays melting point of 208 to 209 °C

According to the records, this compound O=C(NC1CC2CC(N3CCN(c4ccccc4)CC3)CC2C1)c1ccccc1 (configuration not stated) displays melting point of 211 to 212 °C

According to the records, this compound CC1=C(C(=O)OC(C)C)C(c2cccc(Cl)c2Cl)N(C(=O)OC(C)C)C(=O)N1 (configuration not stated) displays melting point of 158 to 160 °C

According to the records, this compound CSC(C[N+](=O)[O-])NCCSCc1cc(C)c(CN(C)C)s1 (configuration not stated) displays melting point of 69 to 71 °C

According to the records, this compound COc1cc(C(=O)NS(=O)(=O)c2ccccc2)ccc1CBr displays melting point of 159 to 160 °C
